# targetOrTestSystem: ROCK1 (Homo sapiens)
# protocol: Direct filter-binding radiometric kinase assay (Eurofins) at Km ATP
# Type: biochemical
# Parameters: purchased Eurofins Testing (Dundee, Scotland, UK)
# Sequence (Q13464 whole entry): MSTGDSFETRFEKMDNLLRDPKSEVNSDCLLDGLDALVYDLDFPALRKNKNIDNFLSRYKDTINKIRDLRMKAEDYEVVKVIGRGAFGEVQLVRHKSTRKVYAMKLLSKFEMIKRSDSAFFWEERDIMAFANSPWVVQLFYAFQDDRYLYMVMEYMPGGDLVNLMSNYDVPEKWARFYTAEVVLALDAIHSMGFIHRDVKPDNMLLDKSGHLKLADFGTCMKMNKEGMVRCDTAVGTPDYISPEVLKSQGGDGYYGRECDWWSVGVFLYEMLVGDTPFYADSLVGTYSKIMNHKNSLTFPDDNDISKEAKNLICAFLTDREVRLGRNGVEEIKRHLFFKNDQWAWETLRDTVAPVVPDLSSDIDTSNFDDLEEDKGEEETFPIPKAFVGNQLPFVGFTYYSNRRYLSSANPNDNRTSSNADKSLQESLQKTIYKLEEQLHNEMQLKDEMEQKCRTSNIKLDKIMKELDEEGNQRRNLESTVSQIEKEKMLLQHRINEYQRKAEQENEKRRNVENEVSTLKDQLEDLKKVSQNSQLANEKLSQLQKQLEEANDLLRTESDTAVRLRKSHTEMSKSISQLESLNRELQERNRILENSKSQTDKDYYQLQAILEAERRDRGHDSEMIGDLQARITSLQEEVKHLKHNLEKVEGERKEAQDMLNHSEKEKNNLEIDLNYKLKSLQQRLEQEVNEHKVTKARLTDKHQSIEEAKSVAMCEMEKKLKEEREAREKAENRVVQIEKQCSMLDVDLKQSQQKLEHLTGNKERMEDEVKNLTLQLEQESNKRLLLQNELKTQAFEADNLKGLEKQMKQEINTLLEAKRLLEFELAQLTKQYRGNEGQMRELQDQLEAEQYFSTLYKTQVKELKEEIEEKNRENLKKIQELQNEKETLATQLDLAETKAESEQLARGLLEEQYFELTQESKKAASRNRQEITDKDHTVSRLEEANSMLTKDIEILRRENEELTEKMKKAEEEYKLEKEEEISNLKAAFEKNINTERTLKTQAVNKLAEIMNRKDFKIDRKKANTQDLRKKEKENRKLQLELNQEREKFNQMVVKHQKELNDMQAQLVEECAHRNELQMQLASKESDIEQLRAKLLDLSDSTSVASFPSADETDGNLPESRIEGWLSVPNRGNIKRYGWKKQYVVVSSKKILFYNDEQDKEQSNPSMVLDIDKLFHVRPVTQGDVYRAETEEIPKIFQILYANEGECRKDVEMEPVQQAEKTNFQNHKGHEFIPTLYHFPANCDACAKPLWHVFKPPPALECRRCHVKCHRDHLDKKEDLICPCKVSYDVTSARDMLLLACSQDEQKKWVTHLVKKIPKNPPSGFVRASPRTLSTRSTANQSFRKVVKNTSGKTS

| compound | IC50 [µM] |
| --- | --- |
| C[C@H](N)C1CCN(S(=O)(=O)c2cccc3c(=O)[nH]ccc23)CC1 [BA-2057] | 23.6 |

* * *

Listed molecules paired with reported Kinome Screen % inhibition ROCK1
# targetOrTestSystem: UniProt:Q13464
# protocol: DiscoverX kinome screen
# Assay type: binding
# Design: are incubated with DNA-tagged kinase domains tagged; DNA tag; purchased DiscoverX
# measurementParameters: 10,000 nM API
# Experimental: A 468-target kinome screen and a safety screen were carried out to examine the off-target profiles of different kinase inhibitors (DiscoverX, Freemont, Calif.). The kinome screen is a binding assay where API interference of kinase domain/substrate binding is assessed as percent of control. Less than 10% binding (or >90% binding inhibition) is most biologically relevant and considered as a ‘hit’. […]
# Sequence (Q13464 76-338 limits assumed): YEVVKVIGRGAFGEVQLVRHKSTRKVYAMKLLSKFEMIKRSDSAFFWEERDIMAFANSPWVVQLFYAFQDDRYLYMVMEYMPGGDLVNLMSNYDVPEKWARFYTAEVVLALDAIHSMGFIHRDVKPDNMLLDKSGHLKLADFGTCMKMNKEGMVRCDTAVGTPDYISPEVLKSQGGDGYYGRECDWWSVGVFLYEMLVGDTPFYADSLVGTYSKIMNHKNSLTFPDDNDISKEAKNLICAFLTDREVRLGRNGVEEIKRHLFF
reportedMetric: Kinome Screen % inhibition ROCK1

| smilesStr | testValue |
| --- | --- |
| C[C@H](N)C1CCN(S(=O)(=O)c2cccc3cnccc23)CC1 | >99% |
| C[C@@H](N)C1CCN(S(=O)(=O)c2cccc3cnccc23)CC1 | >99% |
| C[C@H](N)C1CCN(S(=O)(=O)c2cccc3c(=O)[nH]ccc23)CC1 | >98% |
| C[C@@H](N)C1CCN(S(=O)(=O)c2cccc3c(=O)[nH]ccc23)CC1 | >99% |

* * *

Listed compounds paired with reported Kinome Screen % inhibition PKC Δ
# targetOrTestSystem: PKC Δ (Homo sapiens, UniProt Q05655)
# Construct: are incubated with DNA-tagged kinase domains tagged; DNA tag; purchased DiscoverX
# Sequence (Q05655 349-603 limits assumed, stated change not applied): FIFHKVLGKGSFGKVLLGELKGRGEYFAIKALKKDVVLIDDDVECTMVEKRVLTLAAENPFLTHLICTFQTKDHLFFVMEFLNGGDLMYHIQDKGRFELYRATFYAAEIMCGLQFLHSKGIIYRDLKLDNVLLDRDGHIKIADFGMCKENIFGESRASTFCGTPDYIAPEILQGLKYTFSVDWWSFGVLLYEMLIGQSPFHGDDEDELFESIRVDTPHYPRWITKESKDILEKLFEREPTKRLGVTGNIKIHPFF
# protocol: DiscoverX kinome screen
# Type: binding
# measurementParameters: 10,000 nM API

| smilesStr | Kinome Screen % inhibition PKC Δ |
| --- | --- |
| C[C@H](N)C1CCN(S(=O)(=O)c2cccc3cnccc23)CC1 | <70% |
| C[C@@H](N)C1CCN(S(=O)(=O)c2cccc3cnccc23)CC1 | <70% |
| C[C@H](N)C1CCN(S(=O)(=O)c2cccc3c(=O)[nH]ccc23)CC1 | <70% |
| C[C@@H](N)C1CCN(S(=O)(=O)c2cccc3c(=O)[nH]ccc23)CC1 | <85% |

* * *

# targetOrTestSystem: ROCK1 (Homo sapiens)
# protocol: Direct filter-binding radiometric kinase assay (Eurofins) at Km ATP
# Type: biochemical
# Set-up: purchased Eurofins Testing (Dundee, Scotland, UK)
# measurementParameters: ATP at Km, 70 μM; * = higher purity BA-1076

| smilesStr | unitSpec | IC50 |
| --- | --- | --- |
| C[C@H](N)C1CCN(S(=O)(=O)c2cccc3cnccc23)CC1 | µM | 19.6 |

* * *

# targetOrTestSystem: ROCK2 (Homo sapiens, UniProt O75116)
# Sequence (O75116 whole entry): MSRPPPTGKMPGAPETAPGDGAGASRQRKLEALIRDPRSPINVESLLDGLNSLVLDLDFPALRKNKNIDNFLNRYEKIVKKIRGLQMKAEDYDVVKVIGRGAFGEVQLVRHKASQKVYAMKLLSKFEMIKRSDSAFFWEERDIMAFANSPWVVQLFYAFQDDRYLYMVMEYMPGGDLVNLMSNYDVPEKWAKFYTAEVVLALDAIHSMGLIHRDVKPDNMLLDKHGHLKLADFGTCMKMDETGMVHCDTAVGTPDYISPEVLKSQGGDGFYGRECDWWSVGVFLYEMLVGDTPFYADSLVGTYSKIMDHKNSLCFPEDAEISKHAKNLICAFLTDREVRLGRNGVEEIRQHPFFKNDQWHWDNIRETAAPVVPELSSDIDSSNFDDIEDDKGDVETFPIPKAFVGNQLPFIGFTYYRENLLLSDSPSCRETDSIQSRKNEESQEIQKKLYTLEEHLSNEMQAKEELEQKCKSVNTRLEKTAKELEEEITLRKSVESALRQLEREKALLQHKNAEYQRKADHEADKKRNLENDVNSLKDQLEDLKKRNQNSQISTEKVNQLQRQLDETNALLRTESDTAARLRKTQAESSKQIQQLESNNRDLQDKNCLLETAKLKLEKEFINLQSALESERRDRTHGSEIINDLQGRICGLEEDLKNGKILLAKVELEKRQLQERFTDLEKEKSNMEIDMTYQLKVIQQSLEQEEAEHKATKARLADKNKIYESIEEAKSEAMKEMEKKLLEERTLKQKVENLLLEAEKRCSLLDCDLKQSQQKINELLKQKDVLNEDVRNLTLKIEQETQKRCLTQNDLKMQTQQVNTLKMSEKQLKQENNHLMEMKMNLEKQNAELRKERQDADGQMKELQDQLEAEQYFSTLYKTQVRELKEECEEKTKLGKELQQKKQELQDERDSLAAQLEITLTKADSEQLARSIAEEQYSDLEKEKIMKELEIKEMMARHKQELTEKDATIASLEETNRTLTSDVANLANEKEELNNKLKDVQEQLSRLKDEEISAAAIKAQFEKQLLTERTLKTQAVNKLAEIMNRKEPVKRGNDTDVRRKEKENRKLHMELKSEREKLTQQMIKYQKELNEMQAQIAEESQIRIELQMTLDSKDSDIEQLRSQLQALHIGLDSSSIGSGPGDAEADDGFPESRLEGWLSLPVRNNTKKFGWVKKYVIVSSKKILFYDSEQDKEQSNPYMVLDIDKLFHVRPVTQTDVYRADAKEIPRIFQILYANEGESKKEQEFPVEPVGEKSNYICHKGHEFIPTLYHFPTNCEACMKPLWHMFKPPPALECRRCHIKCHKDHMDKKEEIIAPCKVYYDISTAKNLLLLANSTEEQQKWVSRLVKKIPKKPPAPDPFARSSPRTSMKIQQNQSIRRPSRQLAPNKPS
# protocol: Direct filter-binding radiometric kinase assay (Eurofins) at Km ATP
# Assay type: biochemical
# Parameters: purchased Eurofins Testing (Dundee, Scotland, UK)
reportedMetric: IC50 (nM)

| compound | targetOrTestSystem | reportedMetric | testValue |
| --- | --- | --- | --- |
| C[C@H](N)C1CCN(S(=O)(=O)c2cccc3c(=O)[nH]ccc23)CC1 [BA-2057] | ROCK2 (Homo sapiens, UniProt O75116) | IC50 | 491 |
